Each entry below carries its reported log10 of MIC.
tested on: Staphylococcus aureus 285; assay: In Vitro Anti-Bacterial Activity Test (MIC, agar dilution); format: cell-based; settings: Staphylococcus aureus, 285, 18 h, Staphylococcus aureus 285; Muller-Hinton agar, 37° C., 18 hours; read-out: MIC
Structures can show the parent of a compound that is named as a salt.
Reminder: these figures are log10 of reported MIC, in mg/L before transformation.

{"columns": ["Compound", "Reported Result"],
 "data": [
  ["CCOC(=O)C(C(=O)OCC)C(=O)c1cn(C2CC2)c2c(Cl)c(N3CC[C@@H](N)C3)c(F)cc2c1=O [Example 23, hydrochloride]", -1.31]
]}

Request: Item CCOC(=O)C(C(=O)OCC)C(=O)c1cn(C2CC2)c2c(Cl)c(N3CC[C@@H](NC)C3)c(F)cc2c1=O [Example 55, hydrochloride] : provide log10 of MIC
Result: -0.71

Request: Item CCOC(=O)C(C(=O)OCC)C(=O)c1cn(C2CC2)c2c(F)c(N3CCC(N)C3)c(F)cc2c1=O (centres unmarked) [Example 20, hydrochloride] : provide log10 of MIC
Result: -1.89

Request: Item NC1CCN(c2c(F)cc3c(=O)c(C(=O)CC(=O)C(F)(F)F)cn(C4CC4)c3c2Cl)C1 (centres unmarked) [Example 38, hydrochloride] : provide log10 of MIC
Result: -0.11
